Target: UniProt P08908
Sequence (P08908 whole entry): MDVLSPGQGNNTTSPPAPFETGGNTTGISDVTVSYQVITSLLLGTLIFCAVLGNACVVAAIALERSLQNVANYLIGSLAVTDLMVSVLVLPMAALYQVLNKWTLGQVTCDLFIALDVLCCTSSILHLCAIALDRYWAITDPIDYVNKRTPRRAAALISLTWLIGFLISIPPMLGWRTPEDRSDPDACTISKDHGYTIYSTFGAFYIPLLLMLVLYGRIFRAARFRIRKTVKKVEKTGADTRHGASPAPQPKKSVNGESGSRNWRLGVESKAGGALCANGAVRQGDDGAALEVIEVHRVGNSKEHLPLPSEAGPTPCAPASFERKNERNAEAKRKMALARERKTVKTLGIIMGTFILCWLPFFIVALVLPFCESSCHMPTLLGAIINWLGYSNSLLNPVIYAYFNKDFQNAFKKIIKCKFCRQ
Assay type: functional, cell-based
reported-endpoint: AC50

molecule | target-desc | AC50
CC(C)[C@H](N)C(=O)OCCOCn1cnc2c(=O)[nH]c(N)nc21 [VALACYCLOVIR] | UniProt P08908 | > 10 µM
COc1ccc2cc(CCC(C)=O)ccc2c1 [NABUMETONE] | UniProt P08908 | > 10 µM
C[C@@H]1C[C@H]2[C@@H]3CCC4=CC(=O)C=C[C@]4(C)[C@@]3(F)[C@@H](O)C[C@]2(C)[C@@]1(O)C(=O)CO [DEXAMETHASONE] | UniProt P08908 | > 10 µM
O=C(CCCN1CCC(O)(c2ccc(Br)cc2)CC1)c1ccc(F)cc1 [BROMPERIDOL] | UniProt P08908 | > 30 µM
Clc1ccc(Cn2c(CN3CCCC3)nc3ccccc32)cc1 [CLEMIZOLE] | UniProt P08908 | > 30 µM

Value sought for every listed molecule: AC50.
1. CCOC(=O)C(C)(C)Oc1ccc(Cl)cc1 [CLOFIBRATE]
2. CC(=O)c1ccc(S(=O)(=O)NC(=O)NC2CCCCC2)cc1 [ACETOHEXAMIDE]

1. > 10 µM
2. > 30 µM

Value sought for every listed molecule: AC50.
1. Cc1nnc(SCC2=C(C(=O)O)N3C(=O)[C@@H](NC(=O)Cn4cnnn4)[C@H]3SC2)s1 [CEFAZOLIN]
2. CCCC(C)(COC(N)=O)COC(N)=O [MEPROBAMATE]
3. O=C(O)CCNC(=O)c1ccc(/N=N/c2ccc(O)c(C(=O)O)c2)cc1 [BALSALAZIDE]
4. CC(O)(CS(=O)(=O)c1ccc(F)cc1)C(=O)Nc1ccc(C#N)c(C(F)(F)F)c1 (configuration not stated) [BICALUTAMIDE]
5. CC(C)c1cccc(C(C)C)c1O [PROPOFOL]

1. > 300 µM
2. > 10 µM
3. > 30 µM
4. > 10 µM
5. > 30 µM

Taken from ChEMBL document CHEMBL5291721.
